# Protocol Description: Solubility / hydrophilicity of mimotopic peptides, free or with amino-ADOOA-ADOOA linker
# Assay type: physicochemical
Ends that are not written are not given here.
Measured Parameter: hydrophilicity / solubilization when coupled with amino-ADOOA-ADOOA linker

> print(dat)
                               substance                   reading
1                               YKDSHHPA        solubilize readily
2                        DNTFKD [DNTFKD]  sufficiently hydrophilic
3                        LQTIQE [LQTIQE]  sufficiently hydrophilic
4  NLHRTFE [Asn Leu His Arg Thr Phe Glu]  sufficiently hydrophilic
5                               DNEVFGEA  sufficiently hydrophilic
6  KDSHHPA [Lys Asp Ser His His Pro Ala]        solubilize readily
7                        QDTAVT [QDTAVT]  sufficiently hydrophilic
